experiment: Plasma levels of Nimesulide in rats after composition with/without Piperine (Experiment I); assay type: in vivo, albino rats; conditions: rat, plasma, po, 1.8 mg/kg
reported-property: concentration at 6 h (µg/mL)
Field format: number, assumed µg/mL, no unit text.

Asked: GET /values?readout=concentration at 6 h&item= CS(=O)(=O)Nc1ccc([N+](=O)[O-])cc1Oc1ccccc1 [Nimesulide]
Given back: 2200

----------
Experiment: Plasma levels of Nimesulide in rats after composition with/without Piperine (Experiment I)
Assay type: in vivo, albino rats
Details: rat, plasma, po, 1.8 mg/kg
Experimental: The rats were housed 5 per cage with food and water provided ad libidum. On the day of experimentation the rats were randomised into ten batches of 5 rats each. Four groups were formed. Group I consisted of one batch of 5 rats, which was kept as control which received no drug treatment. Group II consisted of four batches of five rats each. […] Rats of batch I from Group II were sacrificed 60 minutes post treatment after Chloroform anaesthesia. […]
reported-property: concentration at 4 h (µg/mL)
// units = µg/mL; emit number, no label

Asked: Field request: concentration at 4 h | item: CS(=O)(=O)Nc1ccc([N+](=O)[O-])cc1Oc1ccccc1 [Nimesulide]
Given back: 4600
